measurement.protocol: BET inhibitor-based combinations targeting novel dependencies in MECOM-rearranged (r) AML: HNT-34 cell line (AID 2202234); further: nearly all actives have a fitted effect of over 35% in size
study.conditions: HNT-34 AML viability, CellTiter-Glo luminescence, 48 h; series mostly up to 46 µM
Inconclusive results are not listed. Active and inactive are the calls of the source. The call rests on the fitted dose curve; in most records, active means well fitted inhibition curve with a large enough effect; inconclusive means small, poorly fitted or top-dose-only effect; inactive means no such curve, though single readings can be large or run the other way.
Valid outcomes are listed here; reply with one: YES (active), NO (inactive)

Before answering, review these 5 worked examples.
compound	classification
Nc1nc2cc(-c3ccc4ncc(C(=O)N5CCOCC5)n4c3)ccc2o1	YES
CCCc1cc(C(=O)N[C@H](Cc2ccc(-c3cccc(OC(F)(F)F)c3)nc2)C(=O)N[C@@H]2CCNC2)sc1C	YES
C[C@H]1[C@H](C)CC[C@]2(C(=O)O)CC[C@]3(C)C(=CC[C@@H]4[C@@]5(C)CC[C@H](O)C(C)(C)[C@@H]5CC[C@]43C)[C@H]12	NO
O=S(=O)(Nc1ccc(-c2cccnc2)c2cccnc12)c1cccc(C(F)(F)F)c1	YES
CC1(C)C(N(O)C(=O)Nc2ccc(Cl)cc2)N(c2ccc(Cl)cc2)C(=O)N1CC(=O)N/N=C/C=C/c1ccc([N+](=O)[O-])o1 (stereo not drawn)	YES

query: What did this assay record as the result for Nc1ncccc1-c1nc2ccc(-c3ccccc3)nc2n1-c1ccc(C2(N)CCC2)cc1 ?
result: YES

query: What did this assay record as the result for COCCOC(=O)N1CCN(S(=O)(=O)c2cc(F)c(Oc3ccc(Cl)cc3)c(F)c2)C(C(=O)NO)C1 (stereo not drawn) ?
result: YES

query: What did this assay record as the result for Cc1ccc(Nc2nnc(Cc3ccncc3)c3ccccc23)cc1Br ?
result: YES

* * *

measurement.protocol: BET inhibitor-based combinations targeting novel dependencies in MECOM-rearranged (r) AML: OCI-AML3 cell line (AID 2202232); further: nearly all actives have a fitted effect of over 35% in size
study.conditions: CellTiter-Glo luminescence, 48 h; OCI-AML3 viability; series mostly up to 46 µM
Inconclusive results are not listed. Calls of active or inactive are those of the source. Calls come from the whole dose curve; as a rule, active = well fitted inhibition curve with a large enough effect; inconclusive = small, poorly fitted or top-dose-only effect; inactive = no such curve, though single readings can be large or run the other way.
Valid outcomes are listed here; reply with one: active, inactive

Before answering, review these 2 worked examples.
compound	classification
Cn1cc(-c2cnc3ccc4ccc(CS(=O)(=O)NCc5ccccn5)cc4c(=O)c3c2)cn1	inactive
Cc1ccc(F)c(NC(=O)Nc2ccc(-c3cccc4[nH]nc(N)c34)cc2)c1	active

query: What did this assay record as the result for Cc1ccc(NS(=O)(=O)c2cccc(C#N)c2)c2[nH]cc(C#N)c12 ?
result: active

query: What did this assay record as the result for C[C@@H](O)[C@@H]1NC(=O)[C@H](CCCCN)NC(=O)[C@@H](Cc2c[nH]c3ccccc23)NC(=O)[C@H](Cc2ccccc2)NC(=O)[C@@H](NC(=O)[C@H](N)Cc2ccccc2)CSSC[C@@H](C(=O)N[C@H](CO)[C@@H](C)O)NC1=O ?
result: inactive

query: What did this assay record as the result for CNCCCOc1cc(F)c(-c2c(Cl)nc3ncnn3c2N[C@@H](C)C(F)(F)F)c(F)c1 ?
result: active

query: What did this assay record as the result for N#Cc1cccnc1N1CCN(C(=O)c2cccc(Cc3n[nH]c(=O)c4ccccc34)c2)CC1 ?
result: active

query: What did this assay record as the result for COc1cc2c3c(n(CCCN4CCOCC4)c(=O)c2cc1OC)-c1cc2c(cc1C3=O)OCO2 ?
result: active

query: What did this assay record as the result for NC(CO)(CO)CCc1ccc(Sc2cccc(OCc3ccccc3)c2)cc1Cl ?
result: active

query: What did this assay record as the result for CN(C)C(=O)COC(=O)Cc1ccc(OC(=O)c2ccc(N=C(N)N)cc2)cc1 ?
result: inactive

query: What did this assay record as the result for COc1cc(N2CCN(C)CC2)ccc1Nc1ncc2c(n1)N(C)c1ccccc1C(=O)N2C ?
result: active

query: What did this assay record as the result for C[C@H]1C[C@@H](n2c(Nc3ccc(OC(F)(F)F)cc3)nc3cc(CCC(=O)O)ccc32)CC(C)(C)C1 ?
result: active

query: What did this assay record as the result for Nc1ncn([C@H]2C[C@H](O)[C@@H](CO)O2)c(=O)n1 ?
result: active

query: What did this assay record as the result for CON(C)C(=O)N1N=C(c2cc(F)ccc2F)S[C@@]1(CCCN)c1ccccc1 ?
result: active

query: What did this assay record as the result for Cc1c(F)cccc1NC(=O)Nc1ccc(Cl)c(S(=O)(=O)[C@H]2CCCNC2)c1O ?
result: inactive

query: What did this assay record as the result for O=C1CC(c2c[nH]c3ccc(F)cc23)C(=O)N1 (stereo not drawn) ?
result: inactive

query: What did this assay record as the result for CCN1CCN(Cc2ccc(-c3cc4c(N[C@H](C)c5ccccc5)ncnc4[nH]3)cc2)CC1 ?
result: active

query: What did this assay record as the result for CC1(C)OC2=C(C(=O)c3ccccc3C2=O)[C@H](NCc2ccccc2)[C@@H]1O ?
result: active

query: What did this assay record as the result for C[C@@H]1CCNC(=O)c2cc3ccc(C(=O)Nc4nc5ccccc5n4CCCN(C)C)cc3n21 ?
result: active
